Test system: PBMC
test_description: Cytotoxicity against human PBMC after 6 days by trypan blue exclusion method
Format: cell-based
measurement_context: 144 h
Please provide measured IC50 for the entries that follow.

input: Using known records, supply IC50 for C#Cc1cn([C@@H]2O[C@H](CO)[C@@H](O)[C@@]2(C)F)c2nc(N)nc(N)c12
output: > 100 µM

input: Using known records, supply IC50 for C[C@@]1(F)[C@H](O)[C@@H](CO)O[C@H]1n1cc(I)c2c(N)ncnc21
output: 53.2 µM

input: Using known records, supply IC50 for CCOC(=O)[C@H](C)NP(=O)(OC[C@H]1O[C@@H](n2cc(F)c3c(N)ncnc32)[C@](C)(F)[C@@H]1O)Oc1ccccc1 (some centres undefined)
output: > 100 µM

input: Using known records, supply IC50 for C#Cc1cn([C@H]2O[C@H](CO)[C@@H](O)[C@@]2(C)F)c2nc(N)nc(N)c12
output: 54 µM

input: Using known records, supply IC50 for C[C@@]1(O)[C@H](O)[C@@H](CO)O[C@H]1n1ccc(N)nc1=O
output: 47.4 µM

input: Using known records, supply IC50 for CCc1cn([C@H]2O[C@H](CO)[C@@H](O)[C@@]2(C)F)c2ncnc(N)c12
output: > 100 µM

input: Using known records, supply IC50 for C[C@@]1(F)[C@H](O)[C@@H](CO)O[C@@H]1n1cc(C#Cc2ccccc2)c2c(N)ncnc21
output: 40.8 µM

input: Using known records, supply IC50 for C[C@@]1(F)[C@H](O)[C@@H](CO)O[C@@H]1n1cc(I)c2c(N)ncnc21
output: > 100 µM

input: Using known records, supply IC50 for C#Cc1cn([C@H]2O[C@H](CO)[C@@H](O)[C@@]2(C)F)c2ncnc(N)c12
output: > 100 µM
